tested on: stable HCV 2a JFH-1 Rluc replicon cells (L31 present in NS5A); experiment: Renilla luciferase HCV replicon reporter assay, genotype 2a JFH-1; format: cell-based; details: Hepatitis C virus, read-out: 2a JFH (nM), genotype 2a JFH-1 replicon (L31 in NS5A), stable cells
Quick reference: EC50 of the listed items.
metric.name: EC50 (nM)

- compound: "CC[C@H]1CC[C@@H](c2ncc(-c3ccc4c(c3)COc3cc5c(ccc6nc([C@@H]7C[C@H](C)CN7C(=O)[C@@H](NC(=O)OC)C(C)C)[nH]c65)cc3-4)[nH]2)N1C(=O)[C@@H](NC(=O)OC)C1CCOCC1 [IC]"
  measurement.target: "stable HCV 2a JFH-1 Rluc replicon cells (L31 present in NS5A)"
  metric.name: "EC50"
  readout.number: 0.02
- compound: "CC[C@H]1CC[C@@H](c2nc3ccc4cc5c(cc4c3[nH]2)OCc2cc(-c3cnc([C@@H]4CC[C@H](C)N4C(=O)[C@@H](NC(=O)OC)C4CCOCC4)[nH]3)ccc2-5)N1C(=O)[C@@H](NC(=O)OC)C(C)C [IR]"
  measurement.target: "stable HCV 2a JFH-1 Rluc replicon cells (L31 present in NS5A)"
  metric.name: "EC50"
  readout.number: 0.018

---

Quick reference: EC50 of the listed items.
system: NS5A chimeric genotype 2a JFH-1 replicon with genotype 2b MD2b-1 strain NS5A gene (M31 present); assay: Replicon assay, genotype 2b NS5A chimera; type: cell-based, HCV; conditions: Hepatitis C virus, read-out: 2b (s) (nM), genotype 2b MD2b-1 NS5A chimeric replicon (M31), stably replicating replicon cells (s)

- molecule: "CC[C@H]1CC[C@@H](c2ncc(-c3ccc4c(c3)COc3cc5c(ccc6nc([C@@H]7CC[C@H](CC)N7C(=O)[C@@H](NC(=O)OC)C7CCOCC7)[nH]c65)cc3-4)[nH]2)N1C(=O)[C@@H](NC(=O)OC)C1CCOCC1"
  EC50 / nM: 0.065
- molecule: "COC(=O)NC(C(=O)N1[C@@H](C)CC[C@H]1c1nc2ccc3cc4c(cc3c2[nH]1)OCc1cc(-c2cnc([C@@H]3CC[C@H](C)N3C(=O)[C@@H](NC(=O)OC)C3CCOCC3)[nH]2)ccc1-4)C(C)C (some centres unmarked)"
  EC50 / nM: 0.088

---

Quick reference: EC50 of the listed items.
system: NS5A chimeric genotype 1b Con1 replicon with genotype 3a S52 strain NS5A gene; experiment: Replicon assay, genotype 3a NS5A chimera; assay type: cell-based, HCV; conditions: Hepatitis C virus, read-out: 3a (t) (nM), genotype 3a NS5A chimeric replicon, transiently transfected (t)

- compound: "COC(=O)N[C@H](C(=O)N1[C@@H](C)CC[C@H]1c1nc(C)c(-c2ccc3c(c2)COc2cc4c(ccc5nc([C@@H]6CC[C@H](C)N6C(=O)[C@@H](NC(=O)OC)[C@@H](C)OC)[nH]c54)cc2-3)[nH]1)[C@@H](C)OC"
  unit: "nM"
  EC50: 0.042
- compound: "COC(=O)N[C@H](C(=O)N1[C@@H](C)CC[C@H]1c1nc2ccc3cc4c(cc3c2[nH]1)OCc1cc(-c2cnc([C@@H]3C[C@H](C)CN3C(=O)[C@@H](NC(=O)OC)C3CCOCC3)[nH]2)ccc1-4)C(C)C"
  unit: "nM"
  EC50: 0.046
- compound: "COC(=O)NC(C(=O)N1[C@@H](C)CC[C@H]1c1nc2ccc3cc4c(cc3c2[nH]1)OCc1cc(-c2cnc([C@@H]3CC[C@H](C)N3C(=O)[C@@H](NC(=O)OC)[C@@H](C)OC)[nH]2)ccc1-4)C1CCOCC1 (stereo partly drawn)"
  unit: "nM"
  EC50: 0.103
